Molecular target: NLRP3 (Homo sapiens)
Experiment: Human whole blood IL1β release assay (LPS + nigericin, AlphaLisa IL-1β; HWB IC50)
Format: cell-based
Design: Human whole blood in Li-heparin tubes was obtained from healthy donors from a volunteer donor panel; from tissue; host or cells: human whole blood from healthy donors
Conditions: IL-1β release
Method: For systemic delivery, the ability to inhibit NLRP3 when the compounds are present within the bloodstream is of great importance. For this reason, the NLRP3 inhibitory activity of a number of compounds in human whole blood was investigated in accordance with the following protocol. Human whole blood in Li-heparin tubes was obtained from healthy donors from a volunteer donor panel. • 1. […] IL-1β was measured according to the manufacturer protocol (Perkin Elmer-AlphaLisa IL-1 Kit AL220F-5000) • 8. […]
pIC50: −log10 of the molar value. Where a name gives a salt, the structure may show the parent alone.
endpoint_name: pIC50

Observe how each entry below is paired with its result.
>>> value_observed("COc1cc(-c2cc(F)c3c(c2NC(=O)NS(=O)(=O)c2ccn(C(C)(C)CN4CCC4)n2)CCC3)ccn1 [Example 173, sodium salt]")
"≥ 6.30"
>>> value_observed("COc1cc(-c2ccc3c(c2NC(=O)NS(=O)(=O)c2cnn(CC(F)F)c2)CCC3)ccn1 [Example 235, sodium salt]")
"≥ 6.30"
>>> value_observed("COc1cc(-c2ccc3c(c2NC(=O)NS(=O)(=O)c2cc(C4CCCN4C)n(C(C)C)n2)CCC3)ccn1 (centres unmarked) [Example 191, sodium salt]")
"≥ 6.00"

Query: May I ask what pIC50 has been recorded for CC(C)n1ccc(S(=O)(=O)NC(=O)Nc2c(-c3ccnc(OC4CCN(C)CC4)c3)ccc3c2CCC3)n1 [Example 287, sodium salt] ?
Response: ≥ 6.30

Query: Continue with O=C(Nc1c(-c2ccnc(OC3CC3)c2)ccc2c1CCO2)NS(=O)(=O)c1ccn(C2CCC2)n1 [Example 266, sodium salt]
Response: ≥ 6.00

Query: Continue with CC(C)n1ccc(S(=O)(=O)NC(=O)Nc2c(-c3ccnc(OC4CCOC4)c3)ccc3c2CCC3)n1 (centres unmarked) [Example 291, sodium salt]
Response: ≥ 6.00

Query: Continue with COc1cc(-c2ccc3c(c2NC(=O)NS(=O)(=O)c2ccn(C4CC4)n2)CCO3)c(F)cn1 [Example 265, sodium salt]
Response: ≥ 6.30

Query: Continue with CC(C)c1cc(F)cc(-c2cccc(C#N)c2)c1NC(=O)NS(=O)(=O)c1cc(CN(C)C)n(C(C)C)n1
Response: ≥ 6.00

Query: Continue with COc1cc(-c2ccc3c(c2NC(=O)NS(=O)(=O)c2nc(C)cc(C)n2)CCC3)ccn1
Response: ≥ 6.30

Query: Continue with CN(C)CC(C)(C)n1ccc(S(=O)(=O)NC(=O)Nc2c(-c3cccnc3)ccc3c2CCC3)n1
Response: ≥ 6.30

Query: Continue with CC(C)(O)c1coc(S(=O)(=O)NC(=O)Nc2c3c(nn2-c2ccncc2)CCC3)c1
Response: ≥ 6.30

Query: Continue with CC(C)Oc1cc(-c2cc(F)cc(C(C)C)c2NC(=O)NS(=O)(=O)c2cc(C(=O)N(C)C)n(C)n2)ccn1 [Example 168, sodium salt]
Response: ≥ 5.30

Query: Continue with COc1cc(-c2cc(F)c3c(c2NC(=O)NS(=O)(=O)c2ccn(C4CC4)n2)CCC3)ccn1 [Example 170, sodium salt]
Response: ≥ 6.00

Query: Continue with COc1cc(-c2ccc3c(c2NC(=O)NS(=O)(=O)c2ccn(C(C)(C)C(=O)N(C)C)n2)CCC3)ccn1
Response: ≥ 6.30

* * *

Experiment: PK protocol, intravenous administration
Assay type: in vivo, male Sprague Dawley rats
Details: male, Sprague Dawley, plasma, dose 1 mg/kg, rat
Structures can show the parent of a compound that is named as a salt.
endpoint_name: AUC (ng·h/mL)
// units = ng·h/mL; emit number, no label

Observe how each entry below is paired with its result.
>>> value_observed("CC(C)c1cc(F)cc(-c2ccnc(O)c2)c1NC(=O)NS(=O)(=O)c1ccn(C(C)C)n1 [Example 25]")
412
>>> value_observed("COc1cc(-c2ccc3c(c2NC(=O)NS(=O)(=O)c2ccn(C4CC4)n2)CCC3)ccn1 [Example 221, sodium salt]")
65400
>>> value_observed("CC(C)c1cc(F)cc(-c2cccnc2)c1NC(=O)NS(=O)(=O)c1cc(C(=O)N(C)C)n(C)n1 [Example 33, sodium salt]")
274

Please turn your attention to the following entry.
Query: May I ask what AUC has been recorded for CC(C)c1cc(F)cc(-c2cccnc2)c1NC(=O)NS(=O)(=O)c1cc(CN(C)C)n(C)n1 [Example 44] ?
Response: 259

* * *

Target: UniProtKB Q96P20
Assay: Human whole blood IL1β release assay (LPS + nigericin, AlphaLisa IL-1β; HWB IC50)
Type: cell-based
Parameters: Human whole blood in Li-heparin tubes was obtained from healthy donors from a volunteer donor panel; from tissue; host or cells: human whole blood from healthy donors
Details: IL-1β release
endpoint_name: IC50

Observe how each entry below is paired with its result.
>>> value_observed("COc1cc(-c2cc(F)c3c(c2NC(=O)NS(=O)(=O)N2C[C@H]4C[C@@H]2CN4C)CCC3)ccn1")
"≤ 500 nM"
>>> value_observed("Cc1cc(-c2cc(F)cc(C(C)C)c2NC(=O)NS(=O)(=O)c2cc(CN(C)C)n(C)n2)n(C)n1")
"≤ 500 nM"
>>> value_observed("CC(C)Oc1cc(-c2ccc3c(c2NC(=O)NS(=O)(=O)c2ccn(C(C)C)n2)CCC3)ccn1")
"≤ 5000 nM"

Query: May I ask what IC50 has been recorded for COc1cc(-c2ccc3c(c2NC(=O)NS(=O)(=O)c2cc(C4(OC)COC4)n(C)n2)CCC3)ccn1 ?
Response: ≤ 500 nM

* * *

Entries and their IC50 values follow.
Molecular target: NLRP3 (Homo sapiens)
Assay: THP-1 cells pyroptosis assay (LPS + nigericin, resazurin readout; THP IC50)
Format: cell-based
Set-up: Seed THP-1 cells (25,000 cells/well) containing 1.0 μg/ml LPS in 40 μl of RPMI medium; host or cells: THP-1 cells
Counter-ions that a name gives are not always drawn.

>>> value_observed("CC(C)n1ccc(S(=O)(=O)NC(=O)Nc2c(-c3cccnc3)ccc3ccccc23)n1")
"≤ 1000 nM"
>>> value_observed("CC(C)c1cc(F)cc(-c2cncs2)c1NC(=O)NS(=O)(=O)c1ccn(C(C)C)n1")
"≤ 5000 nM"
>>> value_observed("Cc1ncccc1-c1cc(F)cc(C(C)C)c1NC(=O)NS(=O)(=O)c1ccn(C(C)C)n1 [Example 14, ammonium salt]")
"≤ 5000 nM"
>>> value_observed("CN(C)CC(C)(C)n1ccc(S(=O)(=O)NC(=O)Nc2c(-c3ccnc(OC4CC4)c3)ccc3c2CCC3)n1 [Example 200, sodium salt]")
"≤ 500 nM"
>>> value_observed("O=C(Nc1c(C2CCOCC2)ccc2c1CCC2)NS(=O)(=O)c1ccn(C2CC2)n1")
"≤ 5000 nM"
>>> value_observed("COc1cc(-c2cc(F)cc(C(C)C)c2NC(=O)NS(=O)(=O)Cc2ccccc2)ccn1")
"≤ 1000 nM"

Please turn your attention to the following entry.
Query: May I ask what IC50 has been recorded for COc1cc(-c2cc(F)cc(C3CCCC3)c2NC(=O)NS(=O)(=O)c2ccn(C(C)C)n2)ccn1 ?
Response: ≤ 500 nM

* * *

Assay: PK protocol, oral administration
Assay type: in vivo
Conditions: rat, male Sprague Dawley rats, 3 mg/kg, solution in DMSO:water [10:90], plasma
Where a name gives a salt, the structure may show the parent alone.
endpoint_name: Cmax (µg/mL)
// units = µg/mL; emit number, no label

>>> value_observed("COc1cc(-c2ccc3c(c2NC(=O)NS(=O)(=O)c2ccn(C4CC4)n2)CCC3)ccn1 [Example 221, sodium salt]")
7.22

Please turn your attention to the following entry.
Query: May I ask what Cmax has been recorded for COc1cc(-c2ccc3c(c2NC(=O)NS(=O)(=O)c2ccn(C(C)(C)CN(C)C)n2)CCC3)ccn1 [Example 69] ?
Response: 0.113

* * *

Molecular target: NLRP3 (Homo sapiens, UniProt Q96P20)
Sequence (Q96P20 whole entry): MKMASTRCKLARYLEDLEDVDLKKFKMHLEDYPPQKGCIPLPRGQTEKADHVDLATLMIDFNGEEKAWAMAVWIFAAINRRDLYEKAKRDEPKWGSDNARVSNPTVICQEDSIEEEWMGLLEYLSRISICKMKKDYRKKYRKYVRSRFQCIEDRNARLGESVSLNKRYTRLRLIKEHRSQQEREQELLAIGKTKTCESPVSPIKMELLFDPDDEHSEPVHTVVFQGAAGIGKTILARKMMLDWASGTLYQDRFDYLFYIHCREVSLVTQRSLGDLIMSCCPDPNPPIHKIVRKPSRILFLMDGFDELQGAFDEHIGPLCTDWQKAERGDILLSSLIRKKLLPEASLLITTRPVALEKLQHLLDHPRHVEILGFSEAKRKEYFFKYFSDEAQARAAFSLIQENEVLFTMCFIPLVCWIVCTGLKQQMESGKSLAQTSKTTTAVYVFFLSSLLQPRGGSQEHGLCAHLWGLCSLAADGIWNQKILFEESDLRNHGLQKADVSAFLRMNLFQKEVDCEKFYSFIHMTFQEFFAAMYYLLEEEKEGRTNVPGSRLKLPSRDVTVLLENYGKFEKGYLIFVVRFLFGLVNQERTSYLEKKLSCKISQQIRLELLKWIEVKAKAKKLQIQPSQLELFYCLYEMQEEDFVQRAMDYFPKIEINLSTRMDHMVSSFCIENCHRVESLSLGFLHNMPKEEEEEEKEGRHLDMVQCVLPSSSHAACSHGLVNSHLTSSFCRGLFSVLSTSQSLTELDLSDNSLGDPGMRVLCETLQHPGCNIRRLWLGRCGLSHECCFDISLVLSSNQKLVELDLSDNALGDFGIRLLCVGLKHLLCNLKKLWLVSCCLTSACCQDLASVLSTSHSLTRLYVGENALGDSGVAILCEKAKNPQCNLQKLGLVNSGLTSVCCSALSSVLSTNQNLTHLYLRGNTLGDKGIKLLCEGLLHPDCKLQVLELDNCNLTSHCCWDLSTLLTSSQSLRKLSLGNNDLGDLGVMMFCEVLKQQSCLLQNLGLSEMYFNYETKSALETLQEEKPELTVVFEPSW
Assay: THP-1 cells pyroptosis assay (LPS + nigericin, resazurin readout; THP IC50)
Format: cell-based
Design: Seed THP-1 cells (25,000 cells/well) containing 1.0 μg/ml LPS in 40 μl of RPMI medium; host or cells: THP-1 cells
Description: THP-1 cells (ATCC #TIB-202) were grown in RPMI containing L-glutamine (Gibco #11835) supplemented with 1 mM sodium pyruvate (Sigma #S8636) and penicillin (100 units/ml)/streptomycin (0.1 mg/ml) (Sigma #P4333) in 10% Fetal Bovine Serum (FBS) (Sigma #F0804). […] The cells were then counted and viability (>90%) checked by Trypan blue (Sigma #T8154). […] The following method step-by-step assay was followed for compound screening. • 1. […] Plates were read in an Envision reader at Ex 560 nm and Em 590 nm • 9. […]
pIC50: −log10 of the molar value. Structures can show the parent of a compound that is named as a salt.
Entries and their pIC50 values follow.

Observe how each entry below is paired with its result.
>>> value_observed("CC(C)n1ccc(S(=O)(=O)NC(=O)Nc2c(-c3ccnc4c3CCO4)ccc3c2CCC3)n1 [Example 283]")
"≥ 5.30"
>>> value_observed("CCN1CC(S(=O)(=O)NC(=O)Nc2c(-c3ccncc3)cc(F)c3c2CCC3)C1 [Example 85]")
"≥ 6.00"
>>> value_observed("COc1cc(-c2ccc3c(c2NC(=O)NS(=O)(=O)C(C)c2ccccc2)CCC3)ccn1 (centres unmarked) [Example 141]")
"≥ 6.00"
>>> value_observed("O=C(Nc1c(-c2ccncc2)cc(F)c2c1CCC2)NS(=O)(=O)Cc1ccccc1 [Example 130]")
"≥ 5.30"
>>> value_observed("COc1cc(-c2cc(Cl)c3c(c2NC(=O)NS(=O)(=O)c2ccn(C(C)C)n2)CCC3)ccn1 [Example 226, sodium salt]")
"≥ 6.30"

Query: May I ask what pIC50 has been recorded for CN1CCC(CS(=O)(=O)NC(=O)Nc2c(-c3ccncc3)cc(F)c3c2CCC3)C1 (centres unmarked) [Example 165] ?
Response: ≥ 5.30

Query: Continue with COc1cc(-c2ccc3ccccc3c2NC(=O)NS(=O)(=O)c2ccn(C(C)C)n2)ccn1 [Example 209]
Response: ≥ 6.30

Query: Continue with CCOc1cc(-c2cc(F)cc(C(C)C)c2NC(=O)NS(=O)(=O)c2ccn(C(C)C)n2)ccn1 [Example 24]
Response: ≥ 6.30
